Kindly supply the reported pIC50 values for the records listed here.
# experimentalSystem: PRMT5-MEP50 (Homo sapiens, UniProt O14744)
# Sequence (O14744 whole entry): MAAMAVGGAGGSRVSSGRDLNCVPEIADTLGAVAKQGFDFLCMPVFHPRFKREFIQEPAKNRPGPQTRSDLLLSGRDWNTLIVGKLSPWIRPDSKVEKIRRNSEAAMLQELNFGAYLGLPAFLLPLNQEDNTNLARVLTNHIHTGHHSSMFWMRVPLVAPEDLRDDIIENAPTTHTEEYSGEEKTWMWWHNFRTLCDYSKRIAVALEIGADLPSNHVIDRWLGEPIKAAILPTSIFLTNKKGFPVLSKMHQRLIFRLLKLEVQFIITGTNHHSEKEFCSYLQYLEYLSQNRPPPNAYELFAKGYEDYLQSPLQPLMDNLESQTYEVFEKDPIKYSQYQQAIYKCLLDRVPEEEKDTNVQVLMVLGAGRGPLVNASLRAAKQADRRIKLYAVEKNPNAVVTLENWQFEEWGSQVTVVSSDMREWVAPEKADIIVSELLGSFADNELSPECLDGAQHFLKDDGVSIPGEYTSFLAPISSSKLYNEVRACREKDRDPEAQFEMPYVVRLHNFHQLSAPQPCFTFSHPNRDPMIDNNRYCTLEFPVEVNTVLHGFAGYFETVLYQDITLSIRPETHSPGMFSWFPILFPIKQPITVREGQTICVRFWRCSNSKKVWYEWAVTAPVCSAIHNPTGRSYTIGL
# Sequence (Q9BQA1 whole entry partner): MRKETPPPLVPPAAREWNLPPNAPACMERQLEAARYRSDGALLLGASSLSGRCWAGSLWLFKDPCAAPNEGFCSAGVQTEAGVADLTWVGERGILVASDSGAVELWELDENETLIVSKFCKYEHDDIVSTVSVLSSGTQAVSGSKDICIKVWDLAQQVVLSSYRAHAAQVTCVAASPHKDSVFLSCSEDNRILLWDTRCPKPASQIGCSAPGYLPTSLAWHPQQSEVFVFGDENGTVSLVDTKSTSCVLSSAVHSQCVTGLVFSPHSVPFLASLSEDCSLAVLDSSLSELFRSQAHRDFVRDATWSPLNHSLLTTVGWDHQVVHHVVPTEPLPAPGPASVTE
# assayExplanation: PRMT5 Assay (PRMT5 biochemical assay)
# assaySetup: PRMT5 biochemical assay; read-out: PRMT5 IC50
pIC50: −log10 of the molar value.

Nc1ncnc2c1ccn2[C@@H]1C[C@H](CCc2ccc3ccc(NCCO)nc3c2)[C@@H](O)[C@H]1O    > 8.00
Nc1ncnc2c1ccn2[C@H]1C[C@H](O)[C@@H](COc2ccc3ccc(NC4CC4)nc3c2)O1    6.00 to 7.00
Nc1ccc2cc(CC[C@H]3C[C@@H](n4ccc5c(N)ncnc54)[C@H](O)[C@@H]3O)ccc2n1    > 8.00
CNc1ccc2ccc(OC[C@H]3O[C@@H](n4ccc5c(N)nc(C(=O)OC)nc54)[C@@H](F)[C@@H]3O)cc2n1    < 6.00
Nc1ncnc2c1ccn2[C@@H]1O[C@H](COc2ccc3ccc(NC4CCC4)nc3c2)[C@@H](O)[C@@H]1F    < 6.00

Return reported pIC50 values for all items listed beneath this line.
1. Nc1cc2cc(CC[C@H]3C[C@@H](n4ccc5c(N)ncnc54)[C@H](O)[C@@H]3O)ccc2cn1
2. Nc1ccc2ccc(CC[C@H]3C[C@@H](n4cc(C5CCCC5)c5c(N)ncnc54)[C@H](O)[C@@H]3O)cc2n1

a:
1. 7.00 to 8.00
2. > 8.00

----------
# Tested on: MOLM-13 cells
# assayExplanation: MOLM-13 48 Hour Cell Proliferation Assay
# Type: cell-based
# assaySetup: Homo sapiens
pIC50: −log10 of the molar value.
recordedMetric: pIC50

Would you please look over these solved cases?
CNc1ccc2ccc(OC[C@H]3O[C@@H](n4cc(C5CC5)c5c(N)ncnc54)[C@@H](F)[C@@H]3O)cc2n1    > 6.00
CNc1ccc2ccc(CC[C@H]3C[C@@H](n4cc(C5CCCCC5)c5c(N)ncnc54)[C@H](O)[C@@H]3O)cc2n1    5.00 to 6.00

Let's switch to this compound now.
q: Look at this compound and give its reported pIC50. Nc1ncnc2c1c(CO)cn2[C@@H]1O[C@H](COc2ccc3ccc(N4CCC4)nc3c2)[C@@H](O)[C@@H]1F
a: 5.00 to 6.00

----------
# experimentalSystem: UniProtKB O14744
# assayExplanation: PRMT5 Assay (PRMT5 biochemical assay)
pIC50: −log10 of the molar value.
Would you kindly list pIC50 for each of these compounds?

Cn1ccc(-c2cn([C@@H]3O[C@H](COc4ccc5ccc(N[C@H]6C[C@@H](N)C6)nc5c4)[C@@H](O)[C@@H]3F)c3ncnc(N)c23)n1 [I-201]    6.00 to 7.00
Cn1ccc(-c2cn([C@@H]3C[C@H](CCc4ccc5ccc(N6CCC6)nc5c4)[C@@H](O)C3)c3ncnc(N)c23)n1 [I-205]    < 6.00
COCCN(C)C(=O)c1cn([C@@H]2O[C@H](COc3ccc4ccc(N5CCC5)nc4c3)[C@@H](O)[C@@H]2F)c2ncnc(N)c12 [I-217]    < 6.00
Cn1ccc(-c2cn([C@@H]3O[C@H](COc4ccc5cnc(N6CCC6)nc5c4)[C@@H](O)[C@@H]3F)c3ncnc(N)c23)n1 [I-199]    < 6.00
CNc1ccc2ccc(OC[C@H]3O[C@@H](n4cc(-c5cccc(C)n5)c5c(N)ncnc54)[C@@H](F)[C@@H]3O)cc2n1 [I-229]    7.00 to 8.00

Report pIC50 for every entry below.
1. Nc1ncnc2c1c(-n1cccn1)cn2C1CC(CCc2ccc3ccc(NC4CCC4)nc3c2)C(O)C1F (stereo not drawn) [I-235]
2. Cn1ccc(-c2cn([C@H]3C[C@H](O)[C@@H](COc4ccc5ccc(N6CC(N)C6)nc5c4)O3)c3ncnc(N)c23)n1 [I-182]
3. Nc1ncnc2c1c(-n1ccc(C(F)(F)F)n1)cn2[C@H]1C[C@H](O)[C@@H](COc2ccc3ccc(N4CCC4)nc3c2)O1 [I-178]
4. CCc1nc2cc(OC[C@H]3O[C@@H](n4cc(-c5ccn(C)n5)c5c(N)ncnc54)[C@@H](F)[C@@H]3O)ccc2o1 [I-168]

a:
1. 7.00 to 8.00
2. < 6.00
3. < 6.00
4. < 6.00
